B1: TPR 5TU (parent)
chain: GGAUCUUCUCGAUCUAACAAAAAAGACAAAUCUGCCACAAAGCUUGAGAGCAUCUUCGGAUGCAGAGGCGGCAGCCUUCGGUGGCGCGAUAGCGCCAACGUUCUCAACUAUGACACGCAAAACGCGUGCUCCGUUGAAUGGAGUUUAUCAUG

Variants of: B1
Assay: polymerase ribozyme fitness, log enrichment relative to wild type (log ratio); higher = more active; in vitro selection for triplet polymerase activity
This sample holds only a part of the variants without activity.
Mark 0.0 for polymerase ribozyme fitness (log ratio) values under -3, and 1.0 for everything at or above.

{"mutantDesignation": "A12G U13G A121G", "classAssignment": 1.0}
{"mutantDesignation": "G68A G83U C118G G136U", "classAssignment": 0.0}
{"mutantDesignation": "A52U U109G", "classAssignment": 0.0}
{"mutantDesignation": "C10U C87U", "classAssignment": 1.0}
{"mutantDesignation": "U44A G50C G84U G88A U139C G152A", "classAssignment": 0.0}
{"mutantDesignation": "A24C G67C C87U A122U A142G", "classAssignment": 0.0}
{"mutantDesignation": "A16C U33A C54A C85A A91G C125G G133U", "classAssignment": 0.0}
{"mutantDesignation": "C85A C87U U101G G136U", "classAssignment": 0.0}
{"mutantDesignation": "A17U U53G C57U G59C G117U", "classAssignment": 1.0}
{"mutantDesignation": "G50A C76A C96U", "classAssignment": 0.0}
{"mutantDesignation": "C54G G83U G141U", "classAssignment": 1.0}
{"mutantDesignation": "A22C G48U A60G", "classAssignment": 1.0}
{"mutantDesignation": "C10A C32A C54U C116A G143A", "classAssignment": 0.0}
{"mutantDesignation": "C27G G83A", "classAssignment": 0.0}
{"mutantDesignation": "C5A A16C A19U U61A", "classAssignment": 1.0}
{"mutantDesignation": "A21U U55A", "classAssignment": 1.0}
{"mutantDesignation": "C76U C93G G124A C132A", "classAssignment": 0.0}
{"mutantDesignation": "A47G C54A", "classAssignment": 1.0}
{"mutantDesignation": "C85G U134A", "classAssignment": 0.0}
{"mutantDesignation": "U13G A21U C96U G133C A147C", "classAssignment": 0.0}
{"mutantDesignation": "C5G A12G G83A G94A G141C", "classAssignment": 0.0}
